Tested on: 786-0 renal
ASSAY_INFO: NCI-60 one-dose screen, 48 h
CONDITION_LABEL: 10 µM unless noted
This is part of a sample that, as a whole, favours compounds with a hit. Of some 83,000 tested, about 20% had one in any assay. The source made the active and inactive calls. The calls were made as follows: active = growth percent below 10; inactive = the rest.
Outcomes: true (1) for active, false (0) for inactive

- MOLECULE: "Nc1c(C(=O)c2ccc(Br)cc2)oc2nc(-c3cnccn3)cc(-c3cccs3)c12"
  LABEL: "false (0)"
- MOLECULE: "C#C[C@]1(O)CC[C@H]2[C@@H]3CC=C4c5sc(-c6ccc(F)cn6)nc5CC[C@]4(C)[C@H]3CC[C@@]21C"
  LABEL: "true (1)"
- MOLECULE: "CC(=O)Oc1ccccc1C(=O)Nc1ccc(C(=O)/C=C/c2cccs2)cc1"
  LABEL: "false (0)"
- MOLECULE: "COc1ccc2[nH]cc(-c3cc(N)n4nc(-c5c[nH]c6ccc(OC)cc56)cc4n3)c2c1"
  LABEL: "true (1)"
- MOLECULE: "COc1cc(OC)c(C2SCC(=O)N2Nc2ncnc3ccccc23)cc1OC (stereo unspecified)"
  LABEL: "false (0)"
- MOLECULE: "N/C(=N\\c1nc2c(Cl)cc(Cl)cc2s1)C(Cl)(Cl)Cl"
  LABEL: "false (0)"
- MOLECULE: "O=C1c2c(c3c4cc(Br)ccc4[nH]c3c3ccc4ccccc4c23)C(=O)N1CCO"
  LABEL: "false (0)"
- MOLECULE: "CN1CCN(Cc2ccc(NC(=O)c3cncc(C#Cc4cnc5ccc(N6CCSCC6)nn45)c3)cc2C(F)(F)F)CC1"
  LABEL: "true (1)"
- MOLECULE: "CSCCC(C(=O)O)N1C(=O)/C(=C/c2ccc(O)c(O)c2)SC1=S (stereo unspecified)"
  LABEL: "false (0)"
- MOLECULE: "O=C(CCN1C(=O)/C(=C/c2ccccc2F)SC1=S)N1CCOCC1"
  LABEL: "false (0)"
- MOLECULE: "CCN1C(=S)N(CC)C2C1N=C(SC)N2/N=C/C=C/c1ccccc1[N+](=O)[O-] (stereo unspecified)"
  LABEL: "false (0)"
- MOLECULE: "CCCC(=O)NC(c1ccc(N(CC)CC)cc1)c1cc(C)c2cccnc2c1O (stereo unspecified)"
  LABEL: "true (1)"
- MOLECULE: "Clc1ccc2c(NCCCn3ccnc3)c3oc4ccccc4c3nc2c1"
  LABEL: "true (1)"
- MOLECULE: "OC1CCc2c(-c3ccc4ncnc(N5CCc6cc(F)c(Cl)cc65)c4c3)cncc21 (stereo unspecified)"
  LABEL: "false (0)"
- MOLECULE: "COc1cccc(NC2=CC(=O)C(C)=C(C)C2=O)c1"
  LABEL: "false (0)"
- MOLECULE: "COc1ccc(/C=N/Nc2ccnc3cc(Cl)ccc23)cc1Cl"
  LABEL: "true (1)"
- MOLECULE: "O=C(Oc1ccc2ccc(=O)oc2c1)c1ccc(Cl)cc1"
  LABEL: "false (0)"
- MOLECULE: "COc1ccc(-c2cc(C(=O)N=Nc3c(O)[nH]c4ccccc34)c3ccccc3n2)cc1OC"
  LABEL: "false (0)"
- MOLECULE: "N#Cc1nc(-c2ccccc2)oc1S(=O)(=O)N1CCCCC1"
  LABEL: "false (0)"
- MOLECULE: "COc1cc2nc(-c3ccc(C(F)(F)F)cc3)cc(OCCCNCC3CCCO3)c2cc1OC (stereo unspecified)"
  LABEL: "true (1)"
- MOLECULE: "O=C1Nc2ccc(Cl)cc2/C1=C/c1ccc(OCC(=O)c2ccc(Br)cc2)cc1"
  LABEL: "false (0)"
